Target protein (sequence): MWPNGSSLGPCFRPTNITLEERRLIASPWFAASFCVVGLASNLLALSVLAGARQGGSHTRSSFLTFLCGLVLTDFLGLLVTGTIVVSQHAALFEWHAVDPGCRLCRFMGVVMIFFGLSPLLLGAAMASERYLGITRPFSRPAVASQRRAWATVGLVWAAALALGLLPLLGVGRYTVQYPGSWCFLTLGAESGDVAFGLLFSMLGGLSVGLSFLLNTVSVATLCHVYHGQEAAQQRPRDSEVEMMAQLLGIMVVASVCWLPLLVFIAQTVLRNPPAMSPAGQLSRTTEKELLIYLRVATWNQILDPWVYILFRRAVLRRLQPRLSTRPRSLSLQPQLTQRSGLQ
recorded-endpoint: Ki
# do not omit the unit; it follows the number

## Input Give reported Ki value for Cc1ccc(S(=O)(=O)NC(=O)NCCc2ccc(-c3c(C(=O)N(C)C)sc4c(C)cc(C)cc34)cc2)cc1
## Output 0.061 µM

---

Biological target: Prostaglandin E2 receptor EP4 subtype (Homo sapiens, UniProt P35408)
Sequence (P35408 whole entry): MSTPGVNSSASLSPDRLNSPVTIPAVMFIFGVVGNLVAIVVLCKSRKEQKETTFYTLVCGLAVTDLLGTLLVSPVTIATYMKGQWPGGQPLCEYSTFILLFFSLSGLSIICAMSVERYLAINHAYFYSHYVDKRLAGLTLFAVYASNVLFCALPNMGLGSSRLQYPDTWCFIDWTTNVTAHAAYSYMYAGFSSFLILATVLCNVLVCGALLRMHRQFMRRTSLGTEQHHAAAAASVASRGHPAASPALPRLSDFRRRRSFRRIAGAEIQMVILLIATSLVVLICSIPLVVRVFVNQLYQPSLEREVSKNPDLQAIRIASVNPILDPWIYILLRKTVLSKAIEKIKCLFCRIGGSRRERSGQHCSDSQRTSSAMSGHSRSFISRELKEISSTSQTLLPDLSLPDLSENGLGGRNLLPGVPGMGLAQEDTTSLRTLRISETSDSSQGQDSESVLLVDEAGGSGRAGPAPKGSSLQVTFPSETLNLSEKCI
Experiment: Binding affinity to EP4 receptor in presence of 10% HSA
Ki under 9 nM gets fulfilled, anything at or over 9 nM gets not fulfilled.

## Input API: query returns whether the compound falls strictly under 9 nM in Ki. Query: Cc1cc(C)c2sc(C(=O)N(C)C)c(-c3ccc(CCNC(=O)NS(=O)(=O)c4ccccc4Cl)cc3)c2c1
## Output fulfilled

## Input API: query returns whether the compound falls strictly under 9 nM in Ki. Query: COc1ccccc1CC(=O)NCCc1ccc(-c2c(C(=O)N(C)C)sc3c(C)cc(C)cc23)cc1
## Output fulfilled

## Input API: query returns whether the compound falls strictly under 9 nM in Ki. Query: Cc1cc(C)c2sc(C(=O)N(C)C)c(-c3ccc(-c4nn[nH]n4)cc3)c2c1
## Output not fulfilled

## Input API: query returns whether the compound falls strictly under 9 nM in Ki. Query: Cc1ccc(S(=O)(=O)NC(=O)NCCc2ccc(-c3c(C(=O)N(C)C)sc4c(Cl)cc(Cl)cc34)cc2)cc1
## Output not fulfilled

## Input API: query returns whether the compound falls strictly under 9 nM in Ki. Query: Cc1ccc(S(=O)(=O)NC(=O)NCCc2ccc(-c3c(C(N)=O)sc4c(C)cc(C)cc34)cc2)cc1
## Output not fulfilled

## Input API: query returns whether the compound falls strictly under 9 nM in Ki. Query: Cc1ccc(S(=O)(=O)NC(=O)NCCc2ccc(-c3c(C(=O)N(C)C)sc4c(Cl)cc(C(F)(F)F)cc34)cc2)cc1
## Output fulfilled

## Input API: query returns whether the compound falls strictly under 9 nM in Ki. Query: Cc1ccc(S(=O)(=O)NC(=O)NCCc2ccc(-c3c(C(=O)N(C)C)sc4c(C)ccc(C)c34)cc2)cc1
## Output not fulfilled

## Input API: query returns whether the compound falls strictly under 9 nM in Ki. Query: Cc1cc(C)c2sc(C(=O)N(C)C)c(-c3ccc(CCNc4ncccn4)cc3)c2c1
## Output not fulfilled
